Published IC50 for ERAP1 (Homo sapiens, UniProt Q9NZ08), assembled from different documents, is shown next.

{"COMPOUND": "COc1ccc(C(=O)O)cc1S(=O)(=O)Nc1cc(C(F)(F)F)ccc1-n1cccc1", "IC50": "< 500 nM"}
{"COMPOUND": "N#Cc1cc(NS(=O)(=O)c2cc(C(=O)O)ccc2C2CC2)c(OC2CCC23CC3)cc1Cl (single isomer, unassigned)", "IC50": "< 1 nM"}
{"COMPOUND": "CCc1ccc(C(=O)O)cc1S(=O)(=O)Nc1cc(S(C)(=O)=O)ccc1-c1cccc(C#N)c1", "IC50": "< 500 nM"}
{"COMPOUND": "CCc1ccc(C(=O)O)cc1S(=O)(=O)Nc1cc(Cl)ccc1N1CCC(F)(F)CC1", "IC50": "< 500 nM"}
{"COMPOUND": "CN1CC(COc2cc(Cl)c(C#N)cc2NS(=O)(=O)c2cc(C(=O)O)ccc2C2CC2)C1", "IC50": "> 5 nM"}
{"COMPOUND": "COc1ccc(C(=O)O)cc1S(=O)(=O)Nc1cc(C(F)(F)F)ccc1N1CCC[C@@H](O)C1", "IC50": "< 500 nM"}

Request: # IC50 lookup, item `COc1ccc(C(=O)O)cc1S(=O)(=O)Nc1cc(C(F)(F)F)ccc1N1CCC(C)CC1`
Response: < 5000 nM

Request: Fill in the blank: the reported IC50 of `O=C(O)c1ccc(C2CC2)c(S(=O)(=O)Nc2cc(-c3ccns3)ccc2OC2CCCC2)c1` is ____.
Response: < 1 nM

Request: Consider the compound shown here: N#Cc1cc(NS(=O)(=O)c2cc(C(=O)O)ccc2C2CC2)c(OC2CCCC2O)cc1Cl (racemic) What is its recorded IC50?
Response: < 1 nM

Request: Any idea what IC50 was measured for `CC1(COc2cc(Cl)c(C#N)cc2NS(=O)(=O)c2cc(C(=O)O)ccc2C2CC2)CCC1` ?
Response: < 1 nM

Request: # IC50 lookup, item `CCc1ccc(C(=O)O)cc1S(=O)(=O)Nc1cc(-c2cccnn2)ccc1N1CCCCC1`
Response: < 500 nM

Request: I would be grateful if you could share the reported IC50 for `N#Cc1cc(Cl)c(OC2CCCC2)c(NS(=O)(=O)c2cc(C(=O)O)ccc2C2CC2)c1` .
Response: 1 to 5 nM
